- experimental protocol: Cmax in Beagle dog at 1 mg/kg, iv measured for 0.083 to 24 hrs by LC-MS/MS analysis
- Type: ADME, organism-based, Canis lupus familiaris
- Design: time upper 24 hrs, time lower 0.083 hrs, dose 1 mg/kg, route iv
- conditions: in vivo
A collection of compounds and their measured Cmax

compound	unit string	Cmax
Nc1ccn([C@@H]2O[C@@H]3COP(=O)(OCC(=O)OCc4ccccc4)O[C@H]3C2(F)F)c(=O)n1 (stereo partly drawn)	ng/mL	3600
Nc1ccn([C@@H]2O[C@H](COP(=O)(O)OCC(=O)OCc3ccccc3)[C@@H](O)C2(F)F)c(=O)n1	ng/mL	2560
Nc1ccn([C@@H]2O[C@H](CO)[C@@H](OP(=O)(O)OCC(=O)OCc3ccccc3)C2(F)F)c(=O)n1	ng/mL	2560
